molecular target: T1, IL-1β (UniProt P01584 117-269); assay: Biacore, Fab periplasmic extract
T1 construct: Antigen of XPA23
Here the recorded fold difference in affinity against the original is given for each entry.
Answer in fold, number only, no unit symbol.

{"binder": "XPA23 heavy chain F35L (Fab, V domains shown, Fab, periplasmic extract; also called C5A F35L) VH: EVQLLESGGGLVQPGGSLRLSCAASGFTFSKYFMLWVRQAPGKGLEWVSVISPSGGMTRYADSVKGRFTISRDNSKNTLYLQMNSLRAEDTAVYYCARVGYGGNSDYWGQGTLVTVSS VL: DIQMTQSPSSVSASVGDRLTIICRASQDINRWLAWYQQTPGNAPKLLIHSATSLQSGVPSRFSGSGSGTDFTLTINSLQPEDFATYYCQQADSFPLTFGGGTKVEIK", "numeric_value": 0.78}

Would you kindly look at the next entry?
Provide measured fold difference in affinity against the original value, entry: XPA23 heavy chain G56I (Fab, V domains shown, Fab, periplasmic extract; also called C5A G56I) VH: EVQLLESGGGLVQPGGSLRLSCAASGFTFSKYFMFWVRQAPGKGLEWVSVISPSGIMTRYADSVKGRFTISRDNSKNTLYLQMNSLRAEDTAVYYCARVGYGGNSDYWGQGTLVTVSS VL: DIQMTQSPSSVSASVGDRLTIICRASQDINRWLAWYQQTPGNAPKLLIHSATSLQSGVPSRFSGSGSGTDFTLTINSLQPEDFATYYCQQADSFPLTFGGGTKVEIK
1.71
